Conditions: human
Please go through the items and note down their RxScore.

Qu. Determine from records and report RxScore for CCCC(CCC)C(=O)O [divalproex sodium]
Ans. 41.09

Qu. Return reported RxScore. Input molecule: C[C@H]1[C@H](NC(=O)/C(=N\OC(C)(C)C(=O)O)c2csc(N)n2)C(=O)N1S(=O)(=O)O [aztreonam]
Ans. 75.34

Qu. Look up and state reported RxScore for CCCC(C)(COC(N)=O)COC(=O)NC(C)C (stereo not shown) [carisoprodol]
Ans. 83.70

Qu. Identify measured RxScore associated with O=P(O)(O)C(O)(Cn1ccnc1)P(=O)(O)O [zoledronic acid (Zometa), zoledronic acid]
Ans. 53.50

Qu. Determine its reported RxScore: O=C1NC(c2ccccc2)(c2ccccc2)C(=O)N1COP(=O)(O)O [fosphenytoin sodium]
Ans. 46.69

Qu. Entry O=C1CN=C(c2ccccc2Cl)c2cc([N+](=O)[O-])ccc2N1 [clonazepam] needs its RxScore filled in; supply it.
Ans. 51.36

Qu. Assign RxScore to the following record: NCCC(O)(P(=O)(O)O)P(=O)(O)O [pamidronate disodium]
Ans. 51.86

Qu. Give recorded RxScore. CCCCCN(C)CCC(O)(P(=O)(O)O)P(=O)(O)O [ibandronate sodium]
Ans. 45.79

Qu. Give RxScore for O=P(O)(O)C(O)(Cn1ccnc1)P(=O)(O)O [zoledronic acid (Reclast), zoledronic acid]
Ans. 53.23

Qu. Provide one value: measured RxScore of CC1(C)O[C@@H]2[C@@H](CO[C@@]3(COS(N)(=O)=O)OC(C)(C)O[C@@H]23)O1 [topiramate]
Ans. 47.54
